Listed next: entries and their corresponding EC50.
# System: HEK293 cells overexpressing APOL1 G2
# MEASUREMENT DESCRIPTION: APOL1 G2 HEK293 cell rescue assay (reversal of cell death caused by overexpression of APOL1)
# Type: cell-based
# ASSAY SETUP: Homo sapiens, HEK293, HEK293 overexpressing APOL1 G2; geometric mean of at least 2 assay runs; † = single assay run
The response must be a number in nM with no trailing unit.

Item: O=C1CCc2cc(OCCN3CCC4(CC3)C(=O)Nc3ccc(Cl)cc34)cnc2N1[C@H]1C[C@](O)(C2CC2)C1 (single isomer, unassigned) | EC50: 20.1

Item: `CN(c1ccc(OCCN2CCC3(CC2)C(=O)Nc2ccc(Cl)cc23)cc1)S(C)(=O)=O` | EC50: 47.7

Item: O=C1CCc2cc(OCCN3CCC4(CC3)C(=O)Nc3ccc(C(F)F)cc34)cnc2N1C1CC(CO)C1 (stereo not drawn) [Compound 316] | EC50: 32.7

Item: `C[C@]1(O)C[C@@H](n2ncc3cc(OCCN4CCC5(CC4)C(=O)Nc4ccc(C#N)cc45)cc(C(F)(F)F)c32)C1` | EC50: 8.86
